Test system: Nicotiana benthamiana leaf discs
TEST SUMMARY: PSII yield inhibition (chlorophyll fluorescence, imaging PAM) in transiently transformed tobacco leaf discs
Assay type: cell-based
CONDITIONS USED: empty vector-transformed leaf discs, treated for 48 h, read-out: IC50 of PSII yield inhibition

{"COMPOUND": "C#CCN1C(=O)C(F)(F)Oc2cc(F)c(-n3c(=O)n(C)c(=S)n(C)c3=O)cc21 [BAS 850H]", "IC50 [nM]": 11}
